Target: human serum polyclonal antibodies
Experiment: cross-interaction chromatography (CIC), IgG column against blank column
// reported IgG K' (column retention time ratio) for each item listed
Note: the reply should be a number with no unit written.

Example entries and their recorded answers appear below.
binder="anti-human MCT1 antibody Ab17 (antibody, human IgG1, kappa, V domains shown) VH: QVQLVQSGAEVKKPGASVKVSCTVSGRSLTNIHLQWVRQAPGQGLEWMGFIRSSGNTEYNSEFKSRVTMTRDTSTSTVYMELSSLRSEDTAVYYCARNRWYHGTYYSPGYYVMDAWGQGTLVTVSS VL: EIVLTQSPGTLSLSPGERATLSCKGSQNIENYLAWYQQKPGQAPRLLIYNRHNLQTGIPDRFSGSGSGTDFTLTISRLEPEDFAVYYCYQYSDGYTFGGGTKVEIKR" number=0.05
binder="anti-human MCT1 antibody Ab15 (antibody, human IgG1, kappa, V domains shown) VH: QVQLVQSGAEVKKPGASVKVSCTVSGRSLTNYHLQWVRQAPGQGLEWMGFIRSSGNTEYNSEFKSRVTMTRDTSTSTVYMELSSLRSEDTAVYYCARNLWYHGTYYSPGYYVMDAWGQGTLVTVSS VL: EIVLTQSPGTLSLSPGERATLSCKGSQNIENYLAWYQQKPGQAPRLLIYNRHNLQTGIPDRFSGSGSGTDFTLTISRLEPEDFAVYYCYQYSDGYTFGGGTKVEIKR" number=0.09

Input line: Recorded IgG K' (column retention time ratio) of anti-human MCT1 antibody Ab1 (antibody, human IgG1, kappa, V domains shown) VH: QVQLVQSGAEVKKPGASVKVSCTVSGFSLTNYHLQWVRQAPGQGLEWMGFIRSSGNTEYNSEFKSRVTMTRDTSTSTVYMELSSLRSEDTAVYYCARNSWYHGTYYSPGYYVMDAWGQGTLVTVSS VL: EIVLTQSPGTLSLSPGERATLSCKGSQNINNYLAWYQQKPGQAPRLLIYNRHNLQTGIPDRFSGSGSGTDFTLTISRLEPEDFAVYYCYQYSDGYTFGGGTKVEIKR , please.
Output line: 0.05

Input line: Continue with anti-human MCT1 antibody Ab11 (antibody, human IgG1, kappa, V domains shown) VH: QVQLVQSGAEVKKPGASVKVSCTVSGRSLTNYHLQWVRQAPGQGLEWMGFIRSSGNTEYNSEFKSRVTMTRDTSTSTVYMELSSLRSEDTAVYYCARNRWHHGTYYSPGYYVMDAWGQGTLVTVSS VL: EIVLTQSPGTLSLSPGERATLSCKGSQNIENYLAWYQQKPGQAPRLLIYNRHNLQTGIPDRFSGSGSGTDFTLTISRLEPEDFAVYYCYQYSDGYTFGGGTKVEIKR
Output line: 0.06

Input line: Can you handle anti-human MCT1 antibody Ab18 (antibody, human IgG1, kappa, V domains shown) VH: QVQLVQSGAEVKKPGASVKVSCTVSGRSLTNYHLGWVRQAPGQGLEWMGFIRSSGNTEYNSEFKSRVTMTRDTSTSTVYMELSSLRSEDTAVYYCARNRWYHGTYYSPGYYVMDAWGQGTLVTVSS VL: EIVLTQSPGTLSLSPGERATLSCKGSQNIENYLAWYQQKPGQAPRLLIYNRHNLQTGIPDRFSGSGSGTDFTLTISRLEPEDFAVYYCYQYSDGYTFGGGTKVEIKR next?
Output line: 0.08

Input line: What about anti-human MCT1 antibody Ab9 (antibody, human IgG1, kappa, V domains shown) VH: QVQLVQSGAEVKKPGASVKVSCTVSGRSLTNYHIQWVRQAPGQGLEWMGFIRSSGNTEYNSEFKSRVTMTRDTSTSTVYMELSSLRSEDTAVYYCARNRWYHGTYYSPGYYVMDAWGQGTLVTVSS VL: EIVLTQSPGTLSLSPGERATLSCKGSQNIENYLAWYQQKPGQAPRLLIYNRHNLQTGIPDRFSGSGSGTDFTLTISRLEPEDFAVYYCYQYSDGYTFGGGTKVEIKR ?
Output line: 0.07
